Test: CSF concentration, CSF-to-unbound plasma concentration ratio (Part 1b)
Assay type: in vivo, healthy adult participants (human)
Conditions: human, CSF / unbound plasma, oral, Part 1b single dose fed, [T5H-T16H]; read-out: CSF-to-unbound Plasma concentration ratio, median

{"molecule": "CC(C)(C(=O)N1CCOc2c(C#N)cncc2C1)C(F)F [Compound 1]", "Kp": 1.31}

---

Experiment: Plasma pharmacokinetics after single and repeated oral doses
Format: in vivo, healthy adult participants (human)
Details: human, plasma, oral; Part 1a single 40 mg fasted; read-out: Vz/F, mean
experimentalEndpoint: Vd/F (L)

{"moleculeSmiles": "CC(C)(C(=O)N1CCOc2c(C#N)cncc2C1)C(F)F", "experimentalEndpoint": "Vd/F", "measurementUnit": "L", "assayResult": 71.7}

---

Test: Plasma pharmacokinetics after single and repeated oral doses
Type: in vivo, healthy adult participants (human)
Conditions: human, plasma, oral, 10 mg, Part 1a single 10 mg fasted; read-out: AUC, mean
experimentalEndpoint: AUC (µg·h/mL)

{"moleculeSmiles": "CC(C)(C(=O)N1CCOc2c(C#N)cncc2C1)C(F)F", "measurementUnit": "µg·h/mL", "assayResult": 1.25}

---

Test: Plasma pharmacokinetics after single and repeated oral doses
Assay type: in vivo, healthy adult participants (human)
Settings: human, plasma, oral, 20 mg, Part 2 Day 1, 20 mg QD, tau 24 hours; read-out: AUCtau, mean ± SD
experimentalEndpoint: AUC (ng·h/mL)

{"moleculeSmiles": "CC(C)(C(=O)N1CCOc2c(C#N)cncc2C1)C(F)F", "experimentalEndpoint": "AUC", "measurementUnit": "ng·h/mL", "assayResult": 1910}

---

Assay: Plasma pharmacokinetics after single and repeated oral doses
Format: in vivo, healthy adult participants (human)
Conditions: human, plasma, oral, 20 mg, Part 2 Day 14 steady state, 20 mg BID, tau 12 hours; read-out: AUCtau, mean ± SD

{"moleculeSmiles": "CC(C)(C(=O)N1CCOc2c(C#N)cncc2C1)C(F)F", "AUC / ng·h/mL": 2220}

---

Experiment: CSF concentration, CSF-to-unbound plasma concentration ratio (Part 1b)
Format: in vivo, healthy adult participants (human)
Conditions: human, CSF / unbound plasma, oral, Part 1b single dose fed, [T4H-T6H]; read-out: CSF-to-unbound Plasma concentration ratio, median

{"moleculeSmiles": "CC(C)(C(=O)N1CCOc2c(C#N)cncc2C1)C(F)F", "Kp": 0.825}

---

Assay: Plasma pharmacokinetics after single and repeated oral doses
Assay type: in vivo, healthy adult participants (human)
Details: human, plasma, oral, 40 mg, Part 1a single 40 mg fasted; read-out: AUClast, mean

{"compound": "CC(C)(C(=O)N1CCOc2c(C#N)cncc2C1)C(F)F [Compound 1]", "measurementUnit": "ng·h/mL", "AUC(0-t)": 5390}

---

Assay: Plasma pharmacokinetics after single and repeated oral doses
Assay type: in vivo, healthy adult participants (human)
Settings: human, plasma, oral, 30 mg, Part 1a single 30 mg fasted; read-out: AUC, mean

{"moleculeSmiles": "CC(C)(C(=O)N1CCOc2c(C#N)cncc2C1)C(F)F", "measurementUnit": "ng·h/mL", "AUC": 2570}
